tested on: OVCAR-4 ovarian; test: NCI tumour cell line growth inhibition, 48 h; in the data active = GI50 below about 0.43 µM; inactive = the rest
API: response.call in t (active), f (inactive)

What classification did `Cn1c(=O)c(-c2ccccc2Cl)cc2cnc(NC3CCOCC3)nc21` end up with in this test?
f

How about CN1CCCCC1CCN1c2ccccc2Sc2ccc(Br)cc21 (configuration not stated) ?
f

Another: `Nc1ccc(CC[C@H]2CCC/C=C/[C@@H]3C[C@H](O)C[C@H]3[C@H](O)/C=C/C(=O)O2)cc1`
t

Now the compound `CC(=O)c1cc2c(N)c(C(=O)Nc3cccc4ccccc34)sc2nc1C`
f

Now consider `CCN(CC)c1ccc(/C=N/NC(=O)Cc2ccc(Nc3ccnc(C(F)(F)F)c3)cc2)c(O)c1` .
f

Follow-up item: `Cn1cc(-c2cc(-c3cn(C)c4ccccc34)[nH]n2)c2ccccc21`
f

Next record, please: `CCn1c(-c2nonc2N)nc2ccccc21`
f

Moving on to `CCCCNc1ncnc2c1cnn2-c1ccccc1`
f

Lookup `[O]=[Sn]([CH]1CCCCC1)[CH]1CCCCC1`
t

Repeat for the following compound: `NC(=NCCCCCCN=C(N)/N=C(\N)Nc1ccc(Cl)cc1)/N=C(\N)Nc1ccc(Cl)cc1`
f

Likewise for `COC(=O)[C@@]12OC[C@]34[C@H]([C@@H](O)[C@@H]1O)[C@@]1(C)CC(=O)C(O)=C(C)[C@@H]1C[C@H]3OC(=O)[C@H](OC(=O)/C=C(\C)C(C)C)[C@@H]24` ?
t

Same again, this time with `CC[C@H](C)[C@H](NC(=O)[C@H]1CCCCN1C)C(=O)N(C)[C@H](CCc1nc(C(=O)N[C@@H](Cc2ccccc2)C[C@H](C)C(=O)O)cs1)C(C)C`
f
